Reported Tm values are given for each entry in this list.
Method: melting temperature; fluorescence melt of hairpins on a sequencing array, two-state fit, raised by 9.35 °C to match UV melts
Test Context: sodium 0.088 M
Readout Label: Tm (°C)

                                      seq  readout_label  value
 0  GGACGCGGAAACGCACCC ((..(((....)))..))             Tm   33.7
 1  GATCAGGGAAACCTGGTC ((.((((....)))).))             Tm   47.4
 2  GCCATCGCGAAAGCGGGC (((..(((....))))))             Tm   53.9
 3  GACGACGAAAGTCTTGTC ((((((....)))..)))             Tm   40.3
 4  GCGTCTCGAAAGAGCCGC (((.(((....))).)))             Tm   56.5
 5  GACTCTACGAAAGTAGTC (((..(((....))))))             Tm   30.1
 6  GTGCGCGAAAGCGTCCAC ((((((....)))..)))             Tm   36.4
 7  GTAAAAACGAAAGTTTAC (((..(((....))))))             Tm   27.8
 8      GATCCCATGCGGGATC ((((((....))))))             Tm   60.6
 9      GATCGTTAGCACGATC ((((((....))))))             Tm   51.4
10      GATCTGCCTGCAGATC ((((((....))))))             Tm   62.6
11  GACACGCGAAAGCGCGTC (((.(((....))).)))             Tm   63.9
12      GGGACTGAAAAGTCCC ((((((....))))))             Tm   68.3
13    GCTGTCGAAAGACGAGC ((((((....))).)))             Tm   54.1
14  GCAGTCGAAAGACCGTGC ((((((....)))..)))             Tm   38.1
15  GCCTAGCGAAAGCAAGGC ((((.((....)).))))             Tm   67.2
16  GGGCCAGGAAACCAGCCC ((((..(....)..))))             Tm   43.9
17  GGTACGTCGAAAGACACC (((..(((....))))))             Tm   33.3
18          TCGAAGAAATTCGA (((((....)))))             Tm   38.7
19  GGTAGCGGAAACGCTATC (.(((((....))))).)             Tm   51.8
20  GGCCACGGAAACGCGGCC ((((.((....)).))))             Tm   66.5
21  GTGAGCGAAAGCTGCCAC ((((((....)))..)))             Tm   37.6
22  GCACCACGAAAGTGATGC (((.(((....))).)))             Tm   55.7
23  GGGCAAGGAAACTTACCC (((.(((....))).)))             Tm   38.9
24      GATCGACCGCTCGATC ((((((....))))))             Tm   51.7
25  GATAGGGGAAACCCTACC (.(((((....))))).)             Tm   31.1
26      GGAAGGGAAACCTTCC ((((((....))))))             Tm   55.2
27      GCCTTGGAAACAAGGC ((((((....))))))             Tm   67.8
28  GCGTGGTCGAAAGACCGC (((..(((....))))))             Tm   53.2
29  GCCCATCCGAAAGGAGGC (((..(((....))))))             Tm   44.5
30  GAGGCCGGAAACGGTCTC (((.(((....))).)))             Tm   64.8
31  GTGATGGGAAACTGTCAC ((((..(....)..))))             Tm   39.1
32  GAAAACGGAAACGTTTCC (.(((((....))))).)             Tm   34.1
33  GTGCTGGGAAACCAGTAC ((.((((....)))).))             Tm   51.7
34  GCAATGCGAAAGCCCTGC (((..((....))..)))             Tm   28.4
35          AGGTCGAAAGACCT (((((....)))))             Tm   67.4
36  GCAGTCGGAAACGACCAC (..((((....))))..)             Tm     32
37    GCTTTTCGAAAGAAAGC (((.(((....))))))             Tm   44.5
38              GCGAATACTCGC ((((....))))             Tm   46.2
39  GGATCCCGAAAGGGCTCC (((.(((....))).)))             Tm   51.3
40      GTGTTGGAAACAACAC ((((((....))))))             Tm   56.8
41  GCATGACGAAAGTCCTGC (((.(((....))).)))             Tm     51
42      GATCTTGCGTAAGATC ((((((....))))))             Tm   43.6
43      GTAGCAGAAATGCTAC ((((((....))))))             Tm   55.9
44  GGTAATGGAAACATCACC (((.(((....))).)))             Tm   30.7
45      GATCCAGATATGGATC ((((((....))))))             Tm   57.1
46  GAGTAACCGAAAGGTCTC (((..(((....))))))             Tm   33.2
47  GCTCCGCGAAAGCGCAGC (((.(((....))).)))             Tm   45.5
48    GTTCGCCGAAAGGCAAC (((.(((....))))))             Tm   43.3
49  GTCTACGAAAGTACTGAC ((((((....)))..)))             Tm   28.9
